Where these numbers come from: patent US8362000B2

# IC50 per record follows
- target_or_system: purified wild type MGL (wt-MGLL 6H-11-313) (Homo sapiens, UniProt Q99685)
- Sequence (Q99685 1-303): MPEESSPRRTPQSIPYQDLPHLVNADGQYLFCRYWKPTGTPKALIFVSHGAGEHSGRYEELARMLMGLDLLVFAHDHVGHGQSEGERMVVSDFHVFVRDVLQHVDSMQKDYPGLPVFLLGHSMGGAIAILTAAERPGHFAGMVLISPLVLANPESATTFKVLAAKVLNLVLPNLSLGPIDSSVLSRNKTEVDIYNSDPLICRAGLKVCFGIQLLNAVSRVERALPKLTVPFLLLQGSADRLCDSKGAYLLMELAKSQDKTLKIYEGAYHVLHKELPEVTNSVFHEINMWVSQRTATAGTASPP
// units = µM; emit number, no label

Past entries and their recorded results:
- molecule: "O=C(c1cscn1)N1CCN(C2CN(C(=O)c3sc4cc(F)c(C(F)(F)F)cc4c3Cl)C2)CC1 [Cpd 659]"
  IC50 / µM: 0.009
- molecule: "O=C(c1ccc2c(c1)CCN(C(=O)C1CCC(C(F)(F)F)CC1)C2)N1CC(N2CCN(C(=O)c3nccs3)CC2)C1 (stereo not shown) [Cpd 685]"
  IC50 / µM: 0.033

// recorded IC50 for O=C(c1ccc(N2CCS(=O)(=O)CC2)cc1)N1CC(N2CCN(C(=O)c3nccs3)CC2)C1 [Cpd 843] : 5.53

// recorded IC50 for Cn1cc(Cc2ccc(F)cc2)c2ccc(C(=O)N3CC(N4CCN(C(=O)c5nccs5)CC4)C3)cc21 [Cpd 1026] : 0.016

// recorded IC50 for O=C(c1nn(-c2ccc(Cl)cc2Cl)c2c1CCC/C2=C\c1ccc(Cl)cc1)N1CC(N2CCN(C(=O)C(F)(F)F)CC2)C1 [Cpd 1020] : 0.063

// recorded IC50 for COc1ccc(C(=O)N2CC(N3CCN(C(=O)c4nccs4)CC3)C2)cc1-c1ccccc1 [Cpd 1168] : 0.053

// recorded IC50 for Cc1c(C(=O)N2CC(N3CCN(C(=O)c4ccccc4)CC3)C2)sc2cc(C(F)(F)F)ccc12 [Cpd 505] : 0.039

// recorded IC50 for CC1(C)Cc2cc(C(=O)N3CC(N4CCN(C(=O)c5nccs5)CC4)C3)ccc2O1 [Cpd 766] : 0.68

// recorded IC50 for COc1cc(C(=O)N2CC(N3CCN(C(=O)c4ccccc4)CC3)C2)ccc1-c1ccc(F)c(Cl)c1 [Cpd 263] : 0.0285

// recorded IC50 for O=C(c1nccs1)N1CCN(C2CN(C(=O)c3sc4cc(F)ccc4c3C3CC3)C2)CC1 [Cpd 714] : 0.135

// recorded IC50 for Cc1cc(-c2cccc(C(F)(F)F)c2)ccc1C(=O)N1CC(N2CCN(C(=O)c3nccs3)CC2)C1 [Cpd 239] : 0.01

// recorded IC50 for O=C(c1cscn1)N1CC(N2CCN(C(=O)c3cc4cc(C(F)(F)F)ccc4s3)CC2)C1 [Cpd 716] : 0.14

// recorded IC50 for Cc1c(C(=O)N2CC(N3CCN(C(=O)c4nccs4)CC3)C2)sc2cc(F)ccc12 [Cpd 684] : 0.031

###

- target_or_system: MGL (Rattus norvegicus)
- Construct: one g rat brain was homogenized using a Polytron homogenizer; from tissue; host or cells: rat brain homogenate
- Sequence (Q8R431 whole entry): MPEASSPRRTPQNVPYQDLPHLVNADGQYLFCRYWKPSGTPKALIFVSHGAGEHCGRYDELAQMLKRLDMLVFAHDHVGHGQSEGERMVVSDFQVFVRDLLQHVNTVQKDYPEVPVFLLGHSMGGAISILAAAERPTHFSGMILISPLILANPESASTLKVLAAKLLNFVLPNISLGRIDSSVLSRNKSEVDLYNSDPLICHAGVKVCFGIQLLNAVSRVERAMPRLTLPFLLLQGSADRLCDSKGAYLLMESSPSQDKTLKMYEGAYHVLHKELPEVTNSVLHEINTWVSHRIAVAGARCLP
- experimental_details: 2-AG accumulation assay in rat brain homogenate
- Assay type: biochemical
- study_conditions: rat brain homogenate; compound 1 μM; 2-AG accumulation as percent of vehicle; read-out: Rat Brain 2AG % VehCntrl (%) @ 1 μM
quantity_name: 2-AG accumulation, % of vehicle control at 1 µM (%)
// units = %; emit number, no label

- smiles_input: "O=C(c1ccc2c(ccn2-c2ccc(F)cc2)n1)N1CC(N2CCN(C(=O)c3nccs3)CC2)C1"
  reading: 404
- smiles_input: "O=C(c1ccccc1)N1CCN(C2CN(C(=O)c3sc4ccc(Cl)cc4c3C(F)(F)F)C2)CC1"
  reading: 132
- smiles_input: "Cc1cn(-c2cccc(F)c2)c2ccc(C(=O)N3CC(N4CCN(C(=O)c5nccs5)CC4)C3)cc12"
  reading: 859

Here is the next item to consider.
Entry COc1ccc(-n2ccc3cc(C(=O)N4CC(N5CCN(C(=O)c6nccs6)CC5)C4)ccc32)cn1 : 2-AG accumulation, % of vehicle control at 1 µM on MGL (Rattus norvegicus) = 839
